# System: Staphylococcus aureus
# Protocol details: Antibacterial activity against wild type Staphylococcus aureus ATCC 29213 by CLSI dilution method
# Type: functional
Listed next: entries and their corresponding MIC.

>  <Smiles structure>
CN(CCO)c1c(Br)c(C(F)(F)F)nc2nc(N)c(C(N)=O)cc12

>  <Unit descriptor>
µg/mL

>  <Censor symbol>
=

>  <MIC>
8

$$$$
>  <Smiles structure>
CC(C)(C)c1nc2nc(N)c(C(N)=O)cc2cc1Br

>  <Unit descriptor>
µg/mL

>  <Censor symbol>
=

>  <MIC>
4

$$$$
>  <Smiles structure>
NC(=O)c1cc2c(N3CC[C@@H](O)C3)c(Br)c(C(F)(F)F)nc2nc1N

>  <Unit descriptor>
µg/mL

>  <Censor symbol>
=

>  <MIC>
8

$$$$
>  <Smiles structure>
NC(=O)c1cc2cc(CO)c(C(F)(F)F)nc2nc1N

>  <Unit descriptor>
µg/mL

>  <Censor symbol>
>

>  <MIC>
16

$$$$
>  <Smiles structure>
NC(=O)c1cc2c(-c3ccccc3)cc(C(F)(F)F)nc2nc1N

>  <Unit descriptor>
µg/mL

>  <Censor symbol>
>

>  <MIC>
16

$$$$
>  <Smiles structure>
NC(=O)c1cc2cc(Br)c(C3CCCC3)nc2nc1N

>  <Unit descriptor>
µg/mL

>  <Censor symbol>
>

>  <MIC>
16

$$$$
>  <Smiles structure>
CC(C)(OCc1ccccc1)c1nc2nc(N)c(C(N)=O)cc2cc1Br

>  <Unit descriptor>
µg/mL

>  <Censor symbol>
>

>  <MIC>
16

$$$$
>  <Smiles structure>
CC(C)(C)OC(=O)N1CC(c2nc3nc(N)c(C(N)=O)cc3cc2Br)C1

>  <Unit descriptor>
µg/mL

>  <Censor symbol>
>

>  <MIC>
16

$$$$
>  <Smiles structure>
C=CCc1c(Cl)nc2nc(N)c(C(N)=O)cc2c1C

>  <Unit descriptor>
µg/mL

>  <Censor symbol>
=

>  <MIC>
8

$$$$
>  <Smiles structure>
Cc1c(Cc2ccccc2)c(Cl)nc2nc(N)c(C(N)=O)cc12

>  <Unit descriptor>
µg/mL

>  <Censor symbol>
=

>  <MIC>
4

$$$$
>  <Smiles structure>
NC(=O)c1cc2cc(C3CC3)c(C(F)(F)F)nc2nc1N

>  <Unit descriptor>
µg/mL

>  <Censor symbol>
=

>  <MIC>
1

$$$$
